test_summary: Aqueous solubility of the compound
Format: physicochemical
Below, each entry is listed with its recorded solubility.

molecule	solubility
CSCC[C@H](NC(=O)[C@H](CCCN=C(N)N)NC(=O)[C@H](CCCN=C(N)N)NC(=O)CC(N)CSC1CC(=O)N(CCC(=O)O[C@@H](C(=O)O[C@@H]2C(C)=CC3[C@@H](OC(C)=O)C(=O)[C@@]4(C)[C@H]([C@H](OC(=O)c5ccccc5)[C@@]2(O)C3(C)C)[C@]2(OC(C)=O)CO[C@@H]2C[C@@H]4O)[C@@H](NC(=O)c2ccccc2)c2ccccc2)C1=O)C(=O)N[C@@H](CCCCN)C(=O)N[C@@H](Cc1c[nH]c2ccccc12)C(=O)N[C@@H](CCCCN)C(=O)N[C@@H](CCCCN)C(N)=O (some centres not stated)	> 10 mg/mL

Please report solubility for the following molecule: CC(=O)O[C@H]1C(=O)[C@@]2(C)[C@H]([C@H](OC(=O)c3ccccc3)[C@]3(O)C[C@H](OC(=O)[C@H](O)[C@@H](NC(=O)c4ccccc4)c4ccccc4)C(C)=C1C3(C)C)[C@]1(OC(C)=O)CO[C@@H]1C[C@@H]2O < 0.01 mg/mL

These data points were gathered from ChEMBL document CHEMBL1147694.
